Assay: Krafft point determination
Assay type: physicochemical
Conditions: 0.1% in water
RESULT TYPE: Krafft Point (0.1%) (°C)
Provide the reading as a plain figure in °C.

Known results for compounds:
Reported Krafft Point (0.1%) ( CCCCCCCCCCCCCCCNC(=O)[C@H](O)[C@@H](O)[C@H](O[C@@H]1O[C@H](CO)[C@H](O)[C@H](O)[C@H]1O)[C@H](O)CO [C15 D-Lactobionamide] ) = 84

Lab note: CCCCCCCCCCCCCCNC(=O)[C@H](O)[C@@H](O)[C@H](O[C@@H]1O[C@H](CO)[C@H](O)[C@H](O)[C@H]1O)[C@H](O)CO [C14 D-Lactobionamide] gave Krafft Point (0.1%) of 18

Measured Krafft Point (0.1%), CCCCCCCCCNC(=O)[C@H](O)[C@@H](O)[C@H](O[C@@H]1O[C@H](CO)[C@H](O)[C@H](O)[C@H]1O)[C@H](O)CO [C9 D-Lactobionamide, Nonyl D-Lactobionamide] : 42

***
The compound CCCCCCCCCCCNC(=O)[C@H](O)[C@@H](O)[C@H](O[C@@H]1O[C@H](CO)[C@H](O)[C@H](O)[C@H]1O)[C@H](O)CO [C11 D-Lactobionamide] showed Krafft Point (0.1%) equal to 61

* * *

Experiment: Ross-Miles foam height assay of aldonamides (Examples 81-84)
Format: physicochemical
Conditions: 0.1% aldonamide, 40° C. (if not soluble, about 5°-10° C. above Krafft point), 0 ppm hardness
Below, each entry is listed alongside its reported Foam Height Initial.
Numeric only. Scale: mm

Example molecules with recorded Foam Height Initial:
The molecule listed as CCCCCCCCCCCCOCCCNC(=O)[C@H](O)[C@H](O)[C@@H](O)[C@H](O)[C@H](O)CO [C12 Oxypropyl D-Glucoheptonamide] has a reported Foam Height Initial of 245

Recorded result, CCCCCCCCCCCC(=O)OCCNC(=O)[C@H](O)[C@@H](O)[C@H](O)[C@H](O)CO , Foam Height Initial: 185

CCCCCCCCCCCCOC(=O)CNC(=O)[C@H](O)[C@@H](O)[C@H](O[C@@H]1O[C@H](CO)[C@H](O)[C@H](O)[C@H]1O)[C@H](O)CO [D-Lactobionyl C12 Glycinate, N-D-Lactobionyl Dodecyl Glycinate] yielded Foam Height Initial of 161

Please fill in: Foam Height Initial reported for CCCCCCCCCCCCNC(=O)[C@H](O)[C@H](O)[C@H](O)CO [C12 Ribonamide, Dodecyl D-Ribonamide] = 184

In plain terms, CCCCCCCCCCCCOCCCNC(=O)[C@H](O)[C@@H](O)[C@H](O[C@@H]1O[C@H](CO)[C@H](O)[C@H](O)[C@H]1O)[C@H](O)CO [C12 Oxypropyl D-Lactobionamide, Dodecyloxypropyl D-Lactobionamide] has a documented Foam Height Initial of 165

Next:
// recorded Foam Height Initial for CCCCCCCCCCCCCCCCNC(=O)[C@H](O)[C@@H](O)[C@H](O[C@@H]1O[C@H](CO)[C@H](O)[C@H](O)[C@H]1O)[C@H](O)CO [C16 D-Lactobionamide] : 95

Per the records, this molecule ( CCCCC(CC)COCCCNC(=O)[C@H](O)[C@@H](O)[C@H](O)[C@H](O)CO (stereo partly drawn) [Ethylhexyloxypropyl D-Gluconamide] ) has Foam Height Initial equal to 0

Measured Foam Height Initial, CCCCCCCCCCCCCCOCCCNC(=O)[C@H](O)[C@@H](O)[C@H](O)[C@H](O)CO [C14 Oxypropyl D-Gluconamide] : 203

Item: CCCCCCCCCCCCCCNC(=O)[C@H](O)[C@@H](O)[C@H](O[C@@H]1O[C@H](CO)[C@H](O)[C@H](O)[C@H]1O)[C@H](O)CO [C14 D-Lactobionamide] | Foam Height Initial: 141

Reported Foam Height Initial ( CCCCCCCNC(=O)[C@H](O)[C@@H](O)[C@H](O)[C@H](O)CO [C7 D-Gluconamide] ) = 0

Consider CCCCCCCCCCCNC(=O)[C@H](O)[C@@H](O)[C@H](O[C@@H]1O[C@H](CO)[C@H](O)[C@H](O)[C@H]1O)[C@H](O)CO [C11 D-Lactobionamide] . Its measured Foam Height Initial is 0

// Foam Height Initial lookup, molecule = CCCCCCCCCNC(=O)[C@H](O)[C@@H](O)[C@H](O)[C@H](O)CO [C9 D-Gluconamide] , result: 0

The measured Foam Height Initial associated with CCCCCCCCCCNC(=O)[C@H](O)[C@@H](O)[C@H](O)[C@H](O)CO [C10 D-Gluconamide] reads 199

// sample CCCCCCCCCCCCNC(=O)[C@H](O)[C@@H](O)[C@H](O[C@@H]1O[C@H](CO)[C@H](O)[C@H](O)[C@H]1O)[C@H](O)CO [C12 D-Lactobionamide] , its Foam Height Initial was 153

* * *

Assay: Area per molecule at the water/air interface (Example 95)
Format: physicochemical
Conditions: 60 °C, estimated by extrapolation
RESULT TYPE: am (area per molecule)
Number first, unit second.

response.value for CCCCCCCCCCCCOCCOCCOCCOCCOCCO (field: am (area per molecule)) = 52.3 Å^2

The compound identified as CCCCCCCCCCCCOCCOCCOCCOCCOCCOCCOCCO registered its am (area per molecule) at 61.0 Å^2

# am (area per molecule) (compound: CCCCCCCCCCCCOCCOCCOCCOCCOCCOCCOCCOCCO ) is 69.0 Å^2

Query CCCCCCCCCCCCOCCOCCOCCOCCO yields am (area per molecule) of 53.3 Å^2

Shifting focus to the compound that follows.
The compound listed as CCCCCCCCCCCCOCCOCCOCCO has a reported am (area per molecule) of 45.4 Å^2

* * *

Experiment: Effectiveness of adsorption, surface excess concentration at surface saturation (Example 94)
Type: physicochemical
Conditions: 60 °C, estimated by extrapolation
// values below are reported Γmax (surface excess concentration at surface saturation)

CCCCCCCCCCCCOCCOCCOCCOCCOCCO [Dodecylpenta(oxyethylene) Ether] has a reported Γmax (surface excess concentration at surface saturation) of 3.16 × 10^-10 mole/cm^2

Looking up CCCCCCCCCCCCOCCOCCOCCO [Dodecyltri(oxyethylene) Ether] , I see its Γmax (surface excess concentration at surface saturation) listed as 3.83 × 10^-10 mole/cm^2

The measured Γmax (surface excess concentration at surface saturation) associated with CCCCCCCCCCCCOCCOCCOCCOCCOCCOCCOCCO [Dodecylhepta(oxyethylene) Ether] reads 2.71 × 10^-10 mole/cm^2

***
The compound CCCCCCCCCCCCOCCOCCOCCOCCO [Dodecyltetra(oxyethylene) Ether] showed Γmax (surface excess concentration at surface saturation) equal to 3.01 × 10^-10 mole/cm^2

The compound listed as CCCCCCCCCCCCOCCOCCOCCOCCOCCOCCOCCOCCO [Dodecylocta(oxyethylene) Ether] has a reported Γmax (surface excess concentration at surface saturation) of 2.40 × 10^-10 mole/cm^2

* * *

Assay: Krafft point determination
Assay type: physicochemical
Conditions: 0.1% in water
Parameter threshold = 70 °C. Response is True when Krafft Point (0.1%) meets or exceeds it, else False.

The following molecules have reported results that may help.
### Prompt Confirm if Krafft Point (0.1%) reported for the molecule CCCCCCCCCCCCNC(=O)C(O)C(O)C(O)C(O)C(O)C(O)CO [C12 D-Glucooctonamide] is 70 °C or above.
### Response True

### Prompt Does the molecule CCCCCCCCCCCCOCCCNC(=O)[C@H](O)[C@@H](O)[C@H](O[C@H]1O[C@H](CO)[C@@H](O)[C@H](O)[C@H]1O)[C@H](O)CO [C12 Oxypropyl D-Maltobionamide, Dodecyloxypropyl D-Maltobionamide] have recorded Krafft Point (0.1%) that is 70 °C or more?
### Response False

### Prompt # bool: Krafft Point (0.1%) of CCCCCCCCCCCCCCCCNC(=O)[C@H](O)[C@@H](O)[C@H](O[C@@H]1O[C@H](CO)[C@H](O)[C@H](O)[C@H]1O)[C@H](O)CO [C16 D-Lactobionamide] >= 70 °C
### Response False

### Prompt Could you please find out whether CCCCCCCCCCCCCCCCCCNC(=O)[C@H](O)[C@@H](O)[C@H](O[C@@H]1O[C@H](CO)[C@H](O)[C@H](O)[C@H]1O)[C@H](O)CO [C18 D-Lactobionamide] has Krafft Point (0.1%) that meets 70 °C or exceeds it?
### Response True

### Prompt Record CCCCCCCC/C=C\CCCCCCCCNCCCNC(=O)[C@H](O)[C@@H](O)[C@H](O[C@@H]1O[C@H](CO)[C@H](O)[C@H](O)[C@H]1O)[C@H](O)CO [Oleylaminopropyl D-Lactobionamide] ; criterion: Krafft Point (0.1%) no lower than 70 °C. Met?
### Response False

---
### Prompt Reported Krafft Point (0.1%) at or above 70 °C? CCCCCCCCCCCCNC(=O)[C@H](O)[C@@H](O)[C@H](O[C@@H]1O[C@H](CO)[C@H](O)[C@H](O)[C@H]1O)[C@H](O)CO [C12 D-Lactobionamide]
### Response False

### Prompt Krafft Point (0.1%) >= 70 °C for CCCCCCCCCCCCOCCCNC(=O)[C@H](O)[C@@H](O)[C@H](O[C@@H]1O[C@H](CO)[C@H](O)[C@H](O)[C@H]1O)[C@H](O)CO [C12 Oxypropyl D-Lactobionamide, Dodecyloxypropyl D-Lactobionamide] ?
### Response False

### Prompt Textbook exercise: given the entry CCCCCCCCCCCCCCNC(=O)[C@H](O)[C@@H](O)[C@H](O[C@H]1O[C@H](CO)[C@@H](O)[C@H](O)[C@H]1O)[C@H](O)CO [C14 D-Maltobionamide] , state whether its Krafft Point (0.1%) is greater than or equal to 70 °C.
### Response False

### Prompt Has CCCCCCCCCCCCOC(=O)CNC(=O)[C@H](O)[C@@H](O)[C@H](O[C@@H]1O[C@H](CO)[C@H](O)[C@H](O)[C@H]1O)[C@H](O)CO [D-Lactobionyl C12 Glycinate, N-D-Lactobionyl Dodecyl Glycinate] a recorded Krafft Point (0.1%) greater than or equal to 70 °C?
### Response False

The reported numbers originate from patent US5641480A.
